Species: Oryctolagus cuniculus
Assay: Ratio of pA2 for beta-adrenergic receptor to that of alpha-adrenergic receptor
Known Ratio of a selection of compounds
Just the number, please.

Guide cases for Ratio, answers given:
INSERT INTO measurements (compound, quantitative_result) VALUES
  ('Cl.NC(=O)c1cc(C(O)CN2CCN(c3ccccn3)CC2)ccc1O (stereo not given)', 0.2),
  ('COC(=O)c1cc(C(O)CN2CCN(c3ccccc3C)CC2)ccc1O.Cl (stereo not given)', 0.2),
  ('CNC(=O)c1cc(C(O)CNC(C)CCc2ccc3c(c2)OCO3)ccc1O.Cl (stereo not given)', 6.2);

## Task // returns reported Ratio for input COC(=O)c1cc(C(O)CNCC2COc3ccccc3O2)ccc1O.Cl (stereo not given)
## Result 0.5

## Task // returns reported Ratio for input COC(=O)c1cc(C(O)CN2CCC(n3c(O)nc4ccccc43)CC2)ccc1O.Cl (stereo not given)
## Result 0.06

## Task // returns reported Ratio for input Cc1ccccc1N1CCN(CC(O)c2ccc(O)c(C(=O)NCC(C)(C)C)c2)CC1.Cl (stereo not given)
## Result 0.1

## Task // returns reported Ratio for input Cl.NC(=O)c1cc(C(O)CN2CCN(Cc3ccccc3)CC2)ccc1O (stereo not given)
## Result 0.9

## Task // returns reported Ratio for input COC(=O)c1cc(C(O)CNC(C)CCc2ccc3c(c2)OCO3)ccc1O.Cl (stereo not given)
## Result 78

## Task // returns reported Ratio for input NC(=O)c1cc(C(O)CN2CCN(c3ccc(Cl)cc3)CC2)ccc1O (stereo not given)
## Result 0.2

## Task // returns reported Ratio for input CC(CCc1ccc2c(c1)OCO2)NCC(O)c1ccc(O)c(C(=O)N(C)C)c1.Cl (stereo not given)
## Result 56

* * *

Known pA2 of a selection of compounds
Biological target: Adrenergic receptor beta (Homo sapiens, UniProt P08588+P07550+P13945)
Experiment: In vitro blocking activity against beta adrenergic receptor, isolated from guinea pig atria
Format: protein assay

INSERT INTO measurements (compound, measure, result) VALUES
  ('COc1ccc(C(O)CN2CCN(c3ccccc3OC)CC2)cc1C(N)=O.Cl (stereo not given)', 'pA2', 5.41),
  ('Cl.NC(=O)c1cc(C(O)CN2CCN(c3ccccc3)CC2)ccc1O (stereo not given)', 'pA2', 4.19),
  ('CC(CCc1ccc2c(c1)OCO2)NCC(O)c1ccc(O)c(C(=O)NCC(C)(C)C)c1.Cl (stereo not given)', 'pA2', 5.88),
  ('CCNC(=O)c1cc(C(O)CN2CCC(n3c(O)nc4ccccc43)CC2)ccc1O.Cl (stereo not given)', 'pA2', '< 5.38'),
  ('CCNC(=O)c1cc(C(O)CNC(C)CCc2ccc3c(c2)OCO3)ccc1O.Cl (stereo not given)', 'pA2', 6.36),
  ('COC(=O)c1cc(C(O)CN2CCN(c3ccccc3C)CC2)ccc1O.Cl (stereo not given)', 'pA2', 6.79),
  ('COC(=O)c1cc(C(O)CNC(C)(C)CCc2ccc3c(c2)OCO3)ccc1O.Cl (stereo not given)', 'pA2', 6.55),
  ('Cl.NC(=O)c1cc(C(O)CN2CCN(Cc3ccccc3)CC2)ccc1O (stereo not given)', 'pA2', 5.07),
  ('COc1ccccc1N1CCN(CC(O)c2ccc(O)c(C(N)=O)c2)CC1.Cl (stereo not given)', 'pA2', 6.44);

# next compound below
## Task // returns reported pA2 for input COC(=O)c1cc(C(O)CNCC2COc3ccccc3O2)ccc1O.Cl (stereo not given)
## Result 5.92

* * *

Target: Adrenergic receptor beta (Homo sapiens, UniProt P08588+P07550+P13945)
Experiment: In vitro blocking activity against beta adrenergic receptor, isolated from guinea pig atria
Assay type: protein assay
MEASURE: pA2
Just the number, please.

Guide cases for pA2, answers given:
INSERT INTO measurements (compound, measure, quantitative_result) VALUES
  ('Cl.NC(=O)c1cc(C(O)CN2CCN(c3ccccn3)CC2)ccc1O (stereo unspecified)', 'pA2', 5.37),
  ('Cc1ccccc1N1CCN(CC(O)c2ccc(O)c(C3N=NN=N3)c2)CC1 (stereo unspecified)', 'pA2', 6.14),
  ('COC(=O)c1cc(C(O)CN2CCC(n3c(O)nc4ccccc43)CC2)ccc1O.Cl (stereo unspecified)', 'pA2', 5.71),
  ('COc1ccc(C(O)CNC(C)CCc2ccc3c(c2)OCO3)cc1C(N)=O.Cl (stereo unspecified)', 'pA2', 8.46);

## Task // returns reported pA2 for input CNC(=O)c1cc(C(O)CNC(C)CCc2ccc3c(c2)OCO3)ccc1O.Cl (stereo unspecified)
## Result 6.69

## Task // returns reported pA2 for input CCCCCCCCCCCCNC(=O)c1cc(C(O)CNC(C)CCc2ccc3c(c2)OCO3)ccc1O.Cl (stereo unspecified)
## Result 4.53

* * *

Known Ratio of a selection of compounds
Species: Oryctolagus cuniculus
Assay: Ratio of pA2 for beta-adrenergic receptor to that of alpha-adrenergic receptor
Just the number, please.

INSERT INTO results (compound, quantitative_result) VALUES
  ('Cc1ccccc1N1CCN(CC(O)c2ccc(O)c(C(N)=O)c2)CC1.Cl.Cl (stereo not given)', 0.1);

## Task // returns reported Ratio for input COC(=O)c1cc(C(O)CN2CCN(c3ccccc3OC)CC2)ccc1OC.Cl (stereo not given)
## Result 0.3

## Task // returns reported Ratio for input COC(=O)c1cc(C(O)CNC(C)CCc2ccc3c(c2)OCO3)ccc1OC.Cl (stereo not given)
## Result 372

## Task // returns reported Ratio for input COc1ccccc1N1CCN(CC(O)c2ccc(O)c(C(N)=O)c2)CC1.Cl (stereo not given)
## Result 0.1

## Task // returns reported Ratio for input Cl.NC(=O)c1cc(C(O)CN2CCC(n3c(O)nc4ccccc43)CC2)ccc1O (stereo not given)
## Result 0.06

## Task // returns reported Ratio for input Cc1ccccc1N1CCN(CC(O)c2ccc(O)c(C3N=NN=N3)c2)CC1 (stereo not given)
## Result 0.04

## Task // returns reported Ratio for input COc1ccc(N2CCN(CC(O)c3ccc(O)c(C(N)=O)c3)CC2)cc1.Cl.Cl (stereo not given)
## Result 0.5

## Task // returns reported Ratio for input CC(C)(CCc1ccc2c(c1)OCO2)NCC(O)c1ccc(O)c(C(N)=O)c1.Cl (stereo not given)
## Result 69

## Task // returns reported Ratio for input Cl.NC(=O)c1cc(C(O)CN2CCN(c3cccc(C(F)(F)F)c3)CC2)ccc1O (stereo not given)
## Result 3.7

## Task // returns reported Ratio for input CC(Cc1ccc2c(c1)OCO2)NCC(O)c1ccc(O)c(C(N)=O)c1 (stereo not given)
## Result 0.9

## Task // returns reported Ratio for input CCOc1ccc(C(O)CN2CCN(c3ccccc3)CC2)cc1C(N)=O.Cl (stereo not given)
## Result 0.1

* * *

Biological target: Adrenergic receptor alpha (Homo sapiens) (UniProt P35348+P08913+P18825+P25100+P35368+P18089)
Conditions: Canis lupus familiaris
Description: In vivo sympatholytic activity (phenylephrine-induced vasopressor response) at alpha-adrenergic receptor in anesthetized dog, iv
Output met for DR10 not less than 5 mg/kg; output not met otherwise.

## Task Kindly determine if DR10 recorded for COc1ccc(C(O)CNC(C)CCc2ccc3c(c2)OCO3)cc1C(N)=O.Cl (centres undefined) is above or exactly 5 mg/kg.
## Result met

* * *

Known DR10 of a selection of molecules
Biological target: Beta-2 adrenergic receptor (Canis lupus familiaris);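 further: Beta-2 blockade of isoproterenol-induced vasodepression in anesthetized dogs, given intravenously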
The figure you give is taken to be in mg/kg; do not add the unit.

Guide cases for DR10, answers given:
INSERT INTO assay_data (molecule, quantitative_result) VALUES
  ('CC(C)NC(=O)c1cc(C(O)CNC(C)CCc2ccc3c(c2)OCO3)ccc1O.Cl (stereo not given)', 14.8),
  ('CC(CCc1ccc2c(c1)OCO2)NCC(O)c1ccc(O)c(C(N)=O)c1.Cl (stereo not given) [MEDROXALOL HYDROCHLORIDE]', 1.17);

## Task Query the reported DR10 for Beta-2 adrenergic receptor (Canis lupus familiaris); item: CCNC(=O)c1cc(C(O)CNC(C)CCc2ccc3c(c2)OCO3)ccc1O.Cl (stereo not given)
## Result 16.8

* * *

Known pA2 of a selection of molecules
Target: Adrenergic receptor beta (Homo sapiens, UniProt P08588+P07550+P13945)
Test: In vitro blocking activity against beta adrenergic receptor, isolated from guinea pig atria
Type: protein assay
Just the number, please.

INSERT INTO measurements (molecule, system_name, measure, quantitative_result) VALUES
  ('CC(Cc1ccc2c(c1)OCO2)NCC(O)c1ccc(O)c(C(N)=O)c1 (stereo unspecified)', 'Adrenergic receptor beta (Homo sapiens, UniProt P08588+P07550+P13945)', 'pA2', 5.97),
  ('COC(=O)c1cc(C(O)CNC(C)CCc2ccc3c(c2)OCO3)ccc1OC.Cl (stereo unspecified)', 'Adrenergic receptor beta (Homo sapiens, UniProt P08588+P07550+P13945)', 'pA2', 8.1),
  ('Cc1ccccc1N1CCN(CC(O)c2ccc(O)c(C(=O)NCC(C)(C)C)c2)CC1.Cl (stereo unspecified)', 'Adrenergic receptor beta (Homo sapiens, UniProt P08588+P07550+P13945)', 'pA2', 6.33),
  ('CC(C)NC(=O)c1cc(C(O)CNC(C)CCc2ccc3c(c2)OCO3)ccc1O.Cl (stereo unspecified)', 'Adrenergic receptor beta (Homo sapiens, UniProt P08588+P07550+P13945)', 'pA2', 5.88);

# next molecule below
## Task Query the reported pA2 for Adrenergic receptor beta (Homo sapiens, UniProt P08588+P07550+P13945); item: Cl.NC(=O)c1cc(C(O)CN2CCN(c3cccc(C(F)(F)F)c3)CC2)ccc1O (stereo unspecified)
## Result 6.9
